So I've got a bunch of compounds here, and I need their Changes (%) of basal values, aortic blood flow values.
Tested on: aortic blood flow
ASSAY INFO: Effects on aortic blood flow
Format: in vivo, mongrel adult dogs
STUDY CONDITIONS: 2.0 mg/kg i.v., imm.
Structures can show the parent of a compound that is named as a salt.

-- ask Name the reported Changes (%) of basal values, aortic blood flow value associated with the compound COc1ccc(CN2CCNCC2)c(OC)c1OC [Vastarel F, dihydrochloride, reference compound]
-- reply -78.0%

-- ask Now consider COc1ccc(C(C#N)N2CCN(CC(=O)N3CCCC3)CC2)cc1OC (stereo not shown) and answer again.
-- reply +1.1%

-- ask Now consider COc1ccc(C(C#N)N2CCCN(CC=Cc3ccccc3)CC2)cc1OC (stereo not shown) and answer again.
-- reply +9.9%

-- ask Now consider CCOC(=O)N1CCN(C(C#N)c2ccc(OC)c(OC)c2)CC1 (stereo not shown) and answer again.
-- reply +0.5%

-- ask Now consider COc1ccc(C(C#N)N2CCNCC2)cc1OC (stereo not shown) and answer again.
-- reply +9.2%

-- ask Now consider COc1ccc(C(C#N)N2CCN(CC=Cc3ccccc3)CC2)cc1OC (stereo not shown) and answer again.
-- reply +8.3%

-- ask Now consider CCOC(=O)CN1CCN(C(C#N)c2ccc(OC)c(OC)c2)CC1 (stereo not shown) and answer again.
-- reply +6.2%

* * *

System: heart rate
ASSAY INFO: Effects on heart rate
Type: in vivo, mongrel adult dogs
STUDY CONDITIONS: 20.0 mg/kg i.v., 1 min
MEASUREMENT NAME: Changes(%) of basal values, heart rate
Please respond with the number in % and leave the unit unwritten.

-- ask Name the reported Changes(%) of basal values, heart rate value associated with the compound COc1ccc(C(C#N)N2CCN(CC=Cc3ccccc3)CC2)cc1OC (stereo not shown) [Compound D]
-- reply -3.1

-- ask Now consider COc1ccc(C(C#N)N2CCCN(CC=Cc3ccccc3)CC2)cc1OC (stereo not shown) [Compound E] and answer again.
-- reply -1.0

* * *

Tested on: coronary sinus oxygen tension
ASSAY INFO: Effects on coronary sinus oxygen tension
Type: in vivo, mongrel adult dogs
STUDY CONDITIONS: 6.0 mg/kg i.v., imm.
So I've got a bunch of compounds here, and I need their Changes(%) of basal values, coronary sinus oxygen tension values.

-- ask Name the reported Changes(%) of basal values, coronary sinus oxygen tension value associated with the compound COc1ccc(C(C#N)N2CCN(CC(=O)N3CCCC3)CC2)cc1OC (centres unmarked)
-- reply +36.9%

-- ask Now consider COc1ccc(C(C#N)N2CCNCC2)cc1OC (centres unmarked) and answer again.
-- reply +20.1%

-- ask Now consider COc1ccc(C(C#N)N2CCN(CC=Cc3ccccc3)CC2)cc1OC (centres unmarked) and answer again.
-- reply +23.8%

-- ask Now consider CCOC(=O)N1CCN(C(C#N)c2ccc(OC)c(OC)c2)CC1 (centres unmarked) and answer again.
-- reply +18.0%

-- ask Now consider COc1ccc(C(C#N)N2CCCN(CC=Cc3ccccc3)CC2)cc1OC (centres unmarked) and answer again.
-- reply +29.7%

* * *

Tested on: arterial mean blood pressure
ASSAY INFO: Effects on arterial mean blood pressure
Format: in vivo, mongrel adult dogs
STUDY CONDITIONS: 6.0 mg/kg i.v., 40 min
So I've got a bunch of molecules here, and I need their Changes (%) of basal values, arterial mean blood pressure values.
Please respond with the number in % and leave the unit unwritten.

-- ask Quick check: Changes (%) of basal values, arterial mean blood pressure on arterial mean blood pressure, item COc1ccc(C(C#N)N2CCNCC2)cc1OC (stereo not shown) ?
-- reply -2.8

-- ask Now consider COc1ccc(C(C#N)N2CCN(CC=Cc3ccccc3)CC2)cc1OC (stereo not shown) and answer again.
-- reply -1.0

-- ask Now consider COc1ccc(C(C#N)N2CCN(CC(=O)N3CCCC3)CC2)cc1OC (stereo not shown) and answer again.
-- reply -1.3

-- ask Now consider COc1ccc(C(C#N)N2CCCN(CC=Cc3ccccc3)CC2)cc1OC (stereo not shown) and answer again.
-- reply -2.8
